B1: TPR t1 (parent)
chain: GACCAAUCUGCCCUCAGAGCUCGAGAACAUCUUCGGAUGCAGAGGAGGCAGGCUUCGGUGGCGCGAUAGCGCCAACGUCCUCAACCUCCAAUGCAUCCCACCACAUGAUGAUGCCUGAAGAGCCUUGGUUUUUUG

Variants of: B1
Test: polymerase ribozyme fitness, log enrichment relative to wild type (log ratio); higher = more active; in vitro selection for triplet polymerase activity
reported metric: polymerase ribozyme fitness (log ratio)
Give your answer as a number; write no unit.

# count of solved cases: 4
sequence input | observed value
GACCAAUCUGCCCUCAGAGCUCGAGAACAUCUUCGGAUGCAGAGGAGGCGGGCUUCGGUGGCUCGAUAGCGCCAACGUCCUCAACCUCCAAUGCAUCCCAGCACAUGAUGAUGCCUGAACAGCCUUGGUGUUUUG [A50G G63U C101G G120C U130G] | -3.55
GACCAAUCUGCCCUCAGAGCUCGAGAACAUCUUCGGAUGCAGAGGAGGGAGGCUUCGGUGGCGCGAUAGCGCCAACGUCCUCAACCUCCAAUGCAUCCCACCACAUGAUGAUGCCUGAAUAGCCUUGGUUUAUUG [C49G G120U U132A] | -0.00759
GACCAAUCUGCCCUCAGAGCUCGAGAACAUCUUCGGAUGCAUGGGAGGCAGGCUUCGGUGGCGCGAUAGCGCCAACGUCCUCAACCUCCAAUGCAUCCCACCACAUGAUGAUGCCUGAAGAGACUUGGUUUUUUG [G42U A43G C123A] | -1.31
GACCAGUCUGCCCUCAGAGCUCGAGAACAUCUUCGGAUGCAGAGGAGGCAGGCUUCGGUGGCGCGAUAGCGCCAACGUCCUCAACCUCCGAUGCAUCCCACCACAUGAUGAAGCCUGAAGAGCCUUGGUUUUUUG [A6G A90G U112A] | 1.69

Next variant, polymerase ribozyme fitness (log ratio) to be filled in.
Specify polymerase ribozyme fitness (log ratio) for GACCAAUCUGCCCUCAGAUUUCGAGAACAUCUUCGGAUGCAGAGGAGGCAGGCUUCGGUGGCGCGAUAGCGACAACGUCCUCAACCUCCAAUGCAUCCCACCACAUGAUGAUGCCUGAAGAGCCUUGGUUAUUUG [G19U C20U C72A U131A] and stop.
-3.4
